- SYSTEM: trypanothione reductase (Leishmania infantum)
- PROTOCOL TEXT: NADPH oxidation kinetics at […] nm, Lineweaver–Burk and Dixon plots
- Format: biochemical
MEASURED ATTRIBUTE: Ki (nM)
Give the value in nM but do not write nM after it.

Given CCP(CC)CC.[Au+].[Cl-] , report its Ki on trypanothione reductase (Leishmania infantum).
18

* * *

- SYSTEM: trypanothione reductase (Leishmania infantum, UniProt A4HSF7)
- Sequence (A4HSF7 1-491): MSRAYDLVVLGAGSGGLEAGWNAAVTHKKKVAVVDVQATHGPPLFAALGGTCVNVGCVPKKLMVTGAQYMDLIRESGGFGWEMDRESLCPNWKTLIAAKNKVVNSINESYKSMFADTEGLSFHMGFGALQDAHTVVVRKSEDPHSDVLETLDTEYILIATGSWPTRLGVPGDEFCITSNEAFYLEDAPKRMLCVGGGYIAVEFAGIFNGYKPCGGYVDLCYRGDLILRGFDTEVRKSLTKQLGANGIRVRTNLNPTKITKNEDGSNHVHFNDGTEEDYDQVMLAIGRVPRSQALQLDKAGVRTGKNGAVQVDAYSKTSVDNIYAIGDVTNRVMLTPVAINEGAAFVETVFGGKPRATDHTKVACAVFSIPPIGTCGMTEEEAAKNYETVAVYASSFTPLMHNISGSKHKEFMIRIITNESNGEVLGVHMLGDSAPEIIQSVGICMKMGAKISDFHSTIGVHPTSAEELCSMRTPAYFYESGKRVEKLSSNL
- PROTOCOL TEXT: X-ray crystal structure at […] Å
- Assay type: biochemical
MEASURED ATTRIBUTE: pKi
Please keep in mind that pKi is minus log10 of the molar concentration; only the number is needed.

Indicate its recorded pKi; the compound in question is CC[P](CC)(CC)=[Au][S][C@@H]1O[C@H](COC(C)=O)[C@@H](OC(C)=O)[C@H](OC(C)=O)[C@H]1OC(C)=O
6.81
